ASSAYED TARGET: IRAK4 (Homo sapiens)
Sequence (Q9NWZ3 1-460): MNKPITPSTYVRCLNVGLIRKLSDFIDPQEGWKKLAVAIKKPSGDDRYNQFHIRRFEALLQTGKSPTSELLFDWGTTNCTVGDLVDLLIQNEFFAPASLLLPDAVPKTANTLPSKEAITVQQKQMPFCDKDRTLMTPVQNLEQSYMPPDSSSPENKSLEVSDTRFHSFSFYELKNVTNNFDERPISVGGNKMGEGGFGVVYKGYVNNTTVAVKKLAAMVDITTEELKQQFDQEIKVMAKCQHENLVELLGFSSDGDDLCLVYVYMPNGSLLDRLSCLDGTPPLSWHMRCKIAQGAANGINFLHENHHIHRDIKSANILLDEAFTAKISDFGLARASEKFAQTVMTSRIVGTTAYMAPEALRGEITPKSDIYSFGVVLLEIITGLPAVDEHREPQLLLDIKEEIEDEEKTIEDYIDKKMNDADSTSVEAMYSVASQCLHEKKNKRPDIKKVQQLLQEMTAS
TEST DETAILS: OCI-LY-10 degradation assay (western blot, % IRAK4 degraded after 4 hours)
Type: cell-based
Design: endogenous in cells; host or cells: OCI-LY10
CONDITION SET: OCI-LY10 cells, 4 hours, 0.1 uM compound

| COMPOUND | OCI-LY10 % IRAK4 Degradation (0.1 uM) |
| --- | --- |
| O=C1CCC(N2C(=O)c3cccc(NCCOCCN4CCO[C@H](CNCc5ccc(-n6cc(NC(=O)c7coc(-c8ccnc(NCC9CC9)c8)n7)c(C(F)F)n6)cc5)C4)c3C2=O)C(=O)N1 (stereo partly drawn) [I-330] | A (>50% degradation) |
| O=C1CCC(N2C(=O)c3ccc(N4CCN(CCOCCOCCOCCNCc5ccc(-n6cc(NC(=O)c7coc(-c8ccnc(NCC9CC9)c8)n7)c(C(F)F)n6)cc5)CC4)cc3C2=O)C(=O)N1 (stereo not drawn) | A (>50% degradation) |

* * *

ASSAYED TARGET: IRAK4 (Homo sapiens, UniProt Q9NWZ3)
Sequence (Q9NWZ3 1-460): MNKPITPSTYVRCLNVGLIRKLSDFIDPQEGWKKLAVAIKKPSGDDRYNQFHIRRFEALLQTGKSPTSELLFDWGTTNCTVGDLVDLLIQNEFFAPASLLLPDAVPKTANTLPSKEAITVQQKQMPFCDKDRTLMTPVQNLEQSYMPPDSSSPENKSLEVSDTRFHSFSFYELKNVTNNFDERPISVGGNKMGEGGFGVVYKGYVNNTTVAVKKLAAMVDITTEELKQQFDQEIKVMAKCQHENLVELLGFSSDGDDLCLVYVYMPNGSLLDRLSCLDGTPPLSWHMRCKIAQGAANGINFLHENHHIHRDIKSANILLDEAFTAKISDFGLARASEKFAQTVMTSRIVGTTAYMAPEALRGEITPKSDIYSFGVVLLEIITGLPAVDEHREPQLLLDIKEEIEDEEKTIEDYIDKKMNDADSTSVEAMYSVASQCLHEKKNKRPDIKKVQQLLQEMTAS
TEST DETAILS: OCI-LY-10 degradation assay (western blot, % IRAK4 degraded after 4 hours)
Type: cell-based
Set-up: endogenous in cells; host or cells: OCI-LY10
CONDITION SET: OCI-LY10 cells, 4 hours, 0.01 uM compound
MEASUREMENT LABEL: OCI-LY10 % IRAK4 Degradation (0.01 uM)

| COMPOUND | RESULT |
| --- | --- |
| NC(=O)c1nn(-c2ccc(CNCC3CCCCN3CCOCCNc3cccc4c3C(=O)N(C3CCC(=O)NC3=O)C4=O)cc2)cc1NC(=O)c1coc(-c2ccnc(NCC(F)(F)F)c2)n1 (stereo not drawn) | C (<20% degradation) |
| Cn1c(=O)n(C2CCC(=O)NC2=O)c2ccc(CCCOCCOCCNCc3ccc(-n4cc(NC(=O)c5coc(-c6ccnc(NCC7CC7)c6)n5)c(C(F)F)n4)cc3)cc21 (stereo not drawn) | C (<20% degradation) |

* * *

TEST DETAILS: Pharmacokinetics in CD-1 mice (plasma concentrations, PK parameters)
Type: in vivo
CONDITION SET: CD-1, mouse, plasma, po, 30 mg/kg, mouse (CD1) po 30 mg/kg; Mean; read-out: Tmax
MEASUREMENT LABEL: Tmax (h)
Numbers only; they are read as h.

Please look at this molecule and report its Tmax: O=C1CCC(N2C(=O)c3cccc(NCCOCCOCCNCc4ccc(-n5cc(NC(=O)c6coc(-c7ccnc(NCC8CC8)c7)n6)c(C(F)F)n5)cc4)c3C2=O)C(=O)N1 (stereo not shown) 3.33

* * *

ASSAYED TARGET: IRAK4 (Homo sapiens)
TEST DETAILS: OCI-LY-10 MSD assay for IRAK4 DC50
Type: cell-based
Design: endogenous in cells; host or cells: OCI-LY10
CONDITION SET: OCI-LY10 cells, 4 hr incubation, concentration required to degrade 50% of protein
MEASUREMENT LABEL: DC50

State DC50 (IRAK4 (Homo sapiens)) of Cn1c(=O)n(C2CCC(=O)NC2=O)c2ccc(CCCOCCOCCNC(=O)c3ccc(-n4cc(NC(=O)c5coc(-c6ccnc(NCC7CC7)c6)n5)c(C(F)F)n4)cc3)cc21 (centres unmarked) . < 0.05 µM

Param request: DC50 | system IRAK4 (Homo sapiens) | item CC(NCCOCCOCCCc1cccc2c1n(C)c(=O)n2C1CCC(=O)NC1=O)c1ccc(-n2cc(NC(=O)c3coc(-c4ccnc(NCC5CC5)c4)n3)c(C(F)F)n2)cc1 (centres unmarked) < 0.05 µM

Tell me DC50 of Cn1cc(NC(=O)c2cocn2)c(C(=O)NCCOCCOCCOCCNc2cccc3c2C(=O)N(C2CCC(=O)NC2=O)C3=O)n1 (centres unmarked) when tested on IRAK4 (Homo sapiens). > 1 µM

Report DC50 on IRAK4 (Homo sapiens) for this entry: CN(Cc1ccc(-n2cc(NC(=O)c3coc(-c4ccnc(NCC5CC5)c4)n3)c(C(F)F)n2)cc1)C[C@@H]1CN(CCCc2ccc3c(c2)n(C)c(=O)n3C2CCC(=O)NC2=O)CCO1 (some centres unmarked) 0.1 to 0.5 µM

Provide the reported DC50 (system: IRAK4 (Homo sapiens)) for Cn1c(=O)n(C2CCC(=O)NC2=O)c2ccc(CCCN3CCO[C@H](CNCc4ccc(-n5cc(NC(=O)c6coc(-c7ccnc(NCC(F)(F)F)c7)n6)c(C(N)=O)n5)cc4)C3)cc21 (some centres unmarked) < 0.05 µM

State measured DC50 of the molecule O=C1CCC(N2C(=O)c3cccc(NCCOCCOCCOCC(=O)N4C[C@H](O)C[C@H]4C(=O)NCc4ccc(-n5cc(NC(=O)c6coc(-c7ccnc(NCC8CC8)c7)n6)c(C(F)F)n5)cc4)c3C2=O)C(=O)N1 (some centres unmarked) with IRAK4 (Homo sapiens). > 1 µM

Specify DC50 for NC(=O)c1nn(-c2ccc(CNCCOCCOCCn3c(=O)n(C4CCC(=O)NC4=O)c4ccccc43)cc2)cc1NC(=O)c1coc(-c2ccnc(NCC3CC3)c2)n1 (centres unmarked) , system IRAK4 (Homo sapiens). < 0.05 µM

Recall the reported DC50 of Cn1c(=O)n(C2CCC(=O)NC2=O)c2ccc(N3CCN(CCOCCNCc4ccc(-n5cc(NC(=O)c6coc(-c7ccnc(NCC(F)(F)F)c7)n6)c(C(N)=O)n5)cc4)CC3)cc21 (centres unmarked) on IRAK4 (Homo sapiens) and write it down. 0.1 to 0.5 µM

State the measured DC50 (IRAK4 (Homo sapiens)) of Cn1cc(-c2nc(C(=O)Nc3cn(-c4ccc(CNCCOCCOCCNc5cccc6c5C(=O)N(C5CCC(=O)NC5=O)C6=O)cc4)nc3C(F)F)co2)cn1 (centres unmarked) > 1 µM

Please look at NC(=O)c1nn(-c2ccc(C(=O)NCC3CCCCN3CCOCCNc3cccc4c3C(=O)N(C3CCC(=O)NC3=O)C4=O)cc2)cc1NC(=O)c1coc(-c2ccnc(NCC(F)(F)F)c2)n1 (centres unmarked) and tell me its recorded DC50 on IRAK4 (Homo sapiens). < 0.05 µM

Provide DC50, recorded with IRAK4 (Homo sapiens), of Cn1c(=O)n(C2CCC(=O)NC2=O)c2cccc(CCCOCCOCCNC3(c4ccc(-n5cc(NC(=O)c6coc(-c7ccnc(NCC8CC8)c7)n6)c(C(F)F)n5)cc4)CC3)c21 (centres unmarked) 0.05 to 0.1 µM

* * *

TEST DETAILS: Pharmacokinetics in Sprague Dawley rats (plasma and brain concentrations, PK parameters)
Assay type: in vivo
CONDITION SET: Sprague-Dawley, rat, plasma, iv, 3 mg/kg, Sprague Dawley rat, iv 3 mg/kg, plasma, 1 h, Rat 2; read-out: Concentration Rat 2
MEASUREMENT LABEL: concentration at 1 h (ng/mL)
Just the number in ng/mL, nothing appended.

Find the measured concentration at 1 h of O=C1CCC(N2C(=O)c3cccc(NCCOCCOCCNCc4ccc(-n5cc(NC(=O)c6coc(-c7ccnc(NCC8CC8)c7)n6)c(C(F)F)n5)cc4)c3C2=O)C(=O)N1 (stereo not shown) and report it. 232
